tested on: LXRb:RXRa (NR concentration 270 nM, RXRa partner concentration 90 nM); test: PBM binding z-score (relative to random genomic background probes); higher = stronger binding; sequences stand for … in GC…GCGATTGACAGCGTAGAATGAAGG
PBM binding z-score reference
Reply with just the number.

Please review the entries below; each comes with its answer.
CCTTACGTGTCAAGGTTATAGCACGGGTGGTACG
0.638
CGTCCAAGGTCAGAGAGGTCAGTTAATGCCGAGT
4.99
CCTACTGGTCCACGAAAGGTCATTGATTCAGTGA
4.6
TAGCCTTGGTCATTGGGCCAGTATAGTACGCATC
-0.456

Provide PBM binding z-score value for the following sequence: "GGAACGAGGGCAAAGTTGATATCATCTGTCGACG"
0.894

Provide PBM binding z-score value for the following sequence: "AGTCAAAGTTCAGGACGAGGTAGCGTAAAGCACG"
1.58

Provide PBM binding z-score value for the following sequence: "TCATATAGGTAAATGCTAGGTGAAATTCCGATCT"
0.729

Provide PBM binding z-score value for the following sequence: "GATACAGGGTCAGTTAGAGGCCAGAGTATGGAAA"
2.39

Provide PBM binding z-score value for the following sequence: "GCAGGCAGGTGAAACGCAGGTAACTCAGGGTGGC"
-0.67

Provide PBM binding z-score value for the following sequence: "CCTAGTTGGTCGAGGTCACACACGCTATAGGTAC"
3.65

Provide PBM binding z-score value for the following sequence: "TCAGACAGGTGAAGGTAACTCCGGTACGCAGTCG"
0.966
